target: Sodium-dependent serotonin transporter (Rattus norvegicus, UniProt P31652)
Sequence (P31652 whole entry): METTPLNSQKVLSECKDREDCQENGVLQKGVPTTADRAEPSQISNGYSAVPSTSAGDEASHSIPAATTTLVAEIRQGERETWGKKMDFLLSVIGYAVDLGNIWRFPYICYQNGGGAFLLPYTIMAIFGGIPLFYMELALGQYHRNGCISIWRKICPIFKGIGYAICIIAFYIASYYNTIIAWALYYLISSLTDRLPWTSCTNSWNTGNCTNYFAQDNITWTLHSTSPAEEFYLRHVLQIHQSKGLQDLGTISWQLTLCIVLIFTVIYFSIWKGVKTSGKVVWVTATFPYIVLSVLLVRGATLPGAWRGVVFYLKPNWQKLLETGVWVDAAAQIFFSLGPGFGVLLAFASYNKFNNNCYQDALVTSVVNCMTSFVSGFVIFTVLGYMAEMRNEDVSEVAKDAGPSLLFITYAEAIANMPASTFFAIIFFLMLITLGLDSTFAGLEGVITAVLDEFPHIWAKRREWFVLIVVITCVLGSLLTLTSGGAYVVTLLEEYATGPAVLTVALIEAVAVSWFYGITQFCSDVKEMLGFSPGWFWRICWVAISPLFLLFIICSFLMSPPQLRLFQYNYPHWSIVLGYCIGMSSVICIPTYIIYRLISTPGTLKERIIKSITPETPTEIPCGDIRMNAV
pKi: −log10 of the molar value.

| MOLECULE | pKi |
| --- | --- |
| N#Cc1ccc2[nH]cc(C3=CCC(NCCc4ccccc4)CC3)c2c1 (centres undefined) | 8.81 |
| COc1cccc2c1CN([C@H]1CC[C@@H](c3c[nH]c4ccc(C#N)cc43)CC1)CC2 | 9.00 |
| COc1cccc2c1CN([C@H]1CC[C@H](c3c[nH]c4ccc(C#N)cc43)CC1)CC2 | 8.12 |
| COc1ccc2c(c1)CCN([C@H]1CC[C@@H](c3c[nH]c4ccc(C#N)cc43)CC1)C2 | 10.00 |
| COc1cccc2c1CCN([C@H]1CC[C@H](c3c[nH]c4ccc(C#N)cc43)CC1)C2 | 7.92 |
| N#Cc1ccc2[nH]cc([C@H]3CC[C@@H](NCCc4ccccc4)CC3)c2c1 | 8.12 |
| N#Cc1ccc2[nH]cc([C@H]3CC[C@H](N4CCc5ccccc5C4)CC3)c2c1 | 8.00 |
| COc1ccc2c(c1)CCN([C@H]1CC[C@H](c3c[nH]c4ccc(C#N)cc43)CC1)C2 | 8.10 |
| COc1cccc2c1CCN([C@H]1CC[C@@H](c3c[nH]c4ccc(C#N)cc43)CC1)C2 | 9.21 |

###

Biological target: 5-hydroxytryptamine receptor 1A (Homo sapiens) (UniProt P08908)
Sequence (whole entry): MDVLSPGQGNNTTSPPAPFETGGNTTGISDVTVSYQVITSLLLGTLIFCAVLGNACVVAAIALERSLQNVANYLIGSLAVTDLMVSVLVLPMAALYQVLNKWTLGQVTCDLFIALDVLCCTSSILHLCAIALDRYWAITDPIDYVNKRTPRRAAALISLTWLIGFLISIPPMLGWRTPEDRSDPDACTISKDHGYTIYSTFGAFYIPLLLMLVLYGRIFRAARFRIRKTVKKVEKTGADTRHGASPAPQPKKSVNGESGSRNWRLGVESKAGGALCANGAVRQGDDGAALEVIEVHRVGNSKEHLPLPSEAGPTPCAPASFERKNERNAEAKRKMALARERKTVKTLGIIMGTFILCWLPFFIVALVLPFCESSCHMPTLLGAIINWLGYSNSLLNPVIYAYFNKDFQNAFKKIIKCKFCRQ
Assay: Binding affinity for 5-hydroxytryptamine 1A receptor was determined by incubating human 5-hydroxytryptamine 1A receptor transfected CHO cells with [3H]8-OH-DPAT
Assay type: cell-based
Set-up: concentration or dose not given beside the values
Details: concentration not given here

| TEST_SMILES | EXPERIMENTAL_SYSTEM | UNIT_SYMBOL | inhibition |
| --- | --- | --- | --- |
| COc1cccc2c1CCN([C@H]1CC[C@H](c3c[nH]c4ccc(C#N)cc43)CC1)C2 | 5-hydroxytryptamine receptor 1A (Homo sapiens) (UniProt P08908) | % | 47 |
| Fc1ccc2[nH]cc(CCCN3CCc4ccccc4C3)c2c1 | 5-hydroxytryptamine receptor 1A (Homo sapiens) (UniProt P08908) | % | 48 |
| N#Cc1ccc2[nH]cc([C@H]3CC[C@H](N4CCc5ccccc5C4)CC3)c2c1 | 5-hydroxytryptamine receptor 1A (Homo sapiens) (UniProt P08908) | % | 10 |
| COc1cccc2c1CN([C@H]1CC[C@@H](c3c[nH]c4ccc(C#N)cc43)CC1)CC2 | 5-hydroxytryptamine receptor 1A (Homo sapiens) (UniProt P08908) | % | 14 |
